# TARGET_DESC: human PDHK2 (hPDHK2) (Homo sapiens (Human))
# TEST_METHOD_NOTES: Inhibitory action of PDHK activity in vitro (kinase reaction, residual PDH activity measured)
# Assay type: biochemical
# CONDITION_NOTES: read-out: PDHK inhibitory activity IC50
Label key: rule met means IC50 under 1000 nM; rule not met means IC50 of 1000 nM or more.

Consider the worked cases shown below.
CC(=O)Nc1ccc2c(c1)C(O)(C(F)(F)F)c1ccccc1-2 (centres unmarked) ... rule not met
CNC(=O)Cn1cc(-c2cc(C)cc3c2-c2ccccc2C3(O)C(F)(F)F)cn1 (centres unmarked) ... rule met
O=C(c1ccc2c(c1)C(O)(C(F)(F)F)c1ccccc1-2)C1CCCC1 (centres unmarked) ... rule not met
COc1cc(-c2cnn(C(C)(C)CC(=O)O)c2)c2c(c1)C(O)(C(F)(F)F)c1ccccc1-2 (single isomer, unassigned) ... rule met
Cn1cc(-c2cc(C(=O)N3CC(CO)C3)cc3c2-c2ccccc2C3(O)C(F)(F)F)cn1 (centres unmarked) ... rule met

q: Bench note: check whether OC1(C(F)(F)F)c2ccccc2-c2ccc(OCc3cccs3)cc21 (centres unmarked) shows IC50 below 1000 nM
a: rule not met

q: Bench note: check whether CC(C)COc1ccc2c(c1)C(O)(C(F)(F)F)c1ccccc1-2 (centres unmarked) shows IC50 below 1000 nM
a: rule not met

q: Bench note: check whether CN(CCOc1ccc2c(c1)C(O)(C(F)(F)F)c1ccccc1-2)C(=O)CO (centres unmarked) shows IC50 below 1000 nM
a: rule met

====

# TARGET_DESC: human PDHK2 (hPDHK2) (Homo sapiens (Human))
# TEST_METHOD_NOTES: Inhibitory action of PDHK activity in vitro (kinase reaction, residual PDH activity measured)
# Type: biochemical
# CONDITION_NOTES: PDHK inhibitory activity (class symbol)
# Protocol: In the case of human PDHK2 (hPDHK2, Genbank Accession No. NM_002611), modified hPDHK2 cDNA wherein FLAG-Tag sequence is added to the N terminal by a polymerase linkage reaction was prepared based on hPDHK2 cDNA clone (pReceiver-M01/PDK2-GeneCopoeia), and cloned into a vector (pET17b-Novagen). The recombinant construct was transformed into Escherichia coli (DH5α-TOYOBO). The recombinant clones were identified, plasmid DNA was isolated and subjected to the DNA sequence analysis. […]
PROPERTY_MEASURED: IC50

Study these solved cases before continuing.
CCCc1cc(-c2cnn(C(CO)CO)c2)c2c(c1)C(O)(C(F)(F)F)c1ccccc1-2 (stereo not shown) ... < 100 nM
CC(C)Cc1cc(-c2cnn(C(CO)CO)c2)c2c(c1)C(O)(C(F)(F)F)c1ccccc1-2 (single isomer, unassigned) [compound 665] ... < 100 nM
CC(C)(O)Cn1cc(-c2cc(CO)c3c(c2)C(O)(C(F)(F)F)c2ccccc2-3)cn1 (stereo not shown) ... < 100 nM

Recorded IC50 for NC(=O)c1cc(OCCN2CCCOC2=O)cc2c1-c1ccccc1C2(O)C(F)(F)F (stereo not shown) on human PDHK2 (hPDHK2) (Homo sapiens (Human)) was < 100 nM

====

# TARGET_DESC: human PDHK2 (hPDHK2) (Homo sapiens (Human))
# TEST_METHOD_NOTES: Inhibitory action of PDHK activity in vitro (kinase reaction, residual PDH activity measured)
# Assay type: biochemical
# CONDITION_NOTES: PDHK inhibitory activity, class symbol of IC50
For each of the compounds below, state its IC50.

O=C(O)CCCOc1cc(-c2cn[nH]c2)c2c(c1)C(O)(C(F)(F)F)c1ccccc1-2 (stereo not shown) ... < 100 nM
CCNC(=O)c1ccc2c(c1)-c1ccccc1C2(O)C(F)(F)F (stereo not shown) ... > 1000 nM
OCCn1cc(-c2cc(OCCC34CC5CC(CC(O)(C5)C3)C4)cc3c2-c2ccccc2C3(O)C(F)(F)F)cn1 (single isomer, unassigned) ... < 100 nM

Now take the following compound into account.
Form field IC50, entry Cn1cc(-c2cc(C(=O)N3CC(O)C3)cc3c2-c2ccccc2C3(O)C(F)(F)F)cn1 (stereo not shown) : < 100 nM

Provenance of the data: patent US8871934B2
